Would you mind telling me the reported pIC50 of each entry?
system: intracellular amastigotes of T. cruzi CA-I/72 strain; experiment: Time-course study against intracellular amastigotes; assay type: cell-based; settings: Trypanosoma cruzi, 24 h, read-out: IC50 ± SD
Numbers only, as −log10 of the molar value.

For orientation, consider the following solved cases.
>  <COMPOUND>
O=C(Cn1ccnc1[N+](=O)[O-])NCc1ccccc1 [BZ, benznidazole, reference compound]

>  <OBS VALUE>
5.22

$$$$
>  <COMPOUND>
COc1cc(/C=C/C(=O)CC(=O)/C=C/c2ccc(O)c(OC)c2)ccc1O [CUR, reference compound]

>  <OBS VALUE>
4.29

$$$$
>  <COMPOUND>
COc1ccc(/C=C/C(=O)/C=C/c2ccc(OC)c(OC)c2)cc1OC

>  <OBS VALUE>
4.21

$$$$

# context switch: different compound, same pIC50
For record O=C(/C=C/c1ccccc1)/C=C/c1ccccc1 the listed pIC50 is 4.43

---

test system: intracellular amastigotes of T. cruzi CA-I/72 strain; assay: Time-course study against intracellular amastigotes; format: cell-based; conditions: Trypanosoma cruzi, 12 h, read-out: IC50 ± SD
MEASURED METRIC: IC50

>  <COMPOUND>
COc1cc(OC)c(/C=C/C(=O)/C=C/c2c(OC)cc(OC)cc2OC)c(OC)c1

>  <IC50>
> 100 µM

$$$$

I'm hoping you can list IC50 for every compound here, please.
1. O=C(/C=C/c1ccc(Cl)cc1)/C=C/c1ccc(Cl)cc1
2. COc1cc(/C=C/C(=O)CC(=O)/C=C/c2ccc(O)c(OC)c2)ccc1O [CUR, reference compound]
3. COc1ccc(/C=C/C(=O)/C=C/c2ccc(OC)cc2)cc1

Result:
1. > 100 µM
2. > 100 µM
3. > 100 µM

---

test system: intracellular amastigotes of T. cruzi CA-I/72 strain; experiment: Time-course study against intracellular amastigotes; type: cell-based; details: Trypanosoma cruzi, 24 h, read-out: IC50 ± SD
pIC50: −log10 of the molar value.
MEASURED METRIC: pIC50

>  <COMPOUND>
O=C(/C=C/c1ccc(Cl)cc1)/C=C/c1ccc(Cl)cc1 [DBA 5]

>  <pIC50>
< 4.00

$$$$
>  <COMPOUND>
COc1ccc(/C=C/C(=O)/C=C/c2ccc(OC)cc2)cc1 [DBA 2]

>  <pIC50>
< 4.00

$$$$

# context switch: different compound, same pIC50
Known value: intracellular amastigotes of T. cruzi CA-I/72 strain pIC50 of the compound COc1cc(OC)c(/C=C/C(=O)/C=C/c2c(OC)cc(OC)cc2OC)c(OC)c1 [DBA 4] equals < 4.00
